For reference, pKi measured on UniProt:Q07817:
pKi: −log10 of the molar value.

Observe how each entry below is paired with its result.
**Q:** Hi! What's the reported pKi for O=C(Nc1nc2ccccc2s1)c1cccc2c1CN(c1ccc(-c3cnn(CC4CCC5(CCC5)CC4)c3)c(C(=O)O)n1)CC2 [Example 4] on UniProt:Q07817?
**A:** 9.30

**Q:** Hi! What's the reported pKi for Cc1nn(CC23CC4CC(CC(C4)C2)C3)c(C)c1-c1ccc(N2CCc3cccc(C(=O)Nc4nc5ccccc5s4)c3C2)nc1C(=O)O [Example 2] on UniProt:Q07817?
**A:** > 10.00

**Q:** Hi! What's the reported pKi for Cc1c(-c2ccc(N3CCc4cccc(C(=O)Nc5nc6cnccc6s5)c4C3)nc2C(=O)O)cnn1CC12CC3CC(CC(C3)C1)C2 [Example 31] on UniProt:Q07817?
**A:** > 10.00

**Q:** Hi! What's the reported pKi for Cc1c(-c2ccc(N3CCc4cccc(C(=O)Nc5nc6ccccc6s5)c4C3)nc2C(=O)NS(=O)(=O)C2CC2)cnn1CC12CC3CC(CC(C3)C1)C2 [Example 18] on UniProt:Q07817?
**A:** > 10.00

**Q:** Hi! What's the reported pKi for Cc1c(-c2ccc(N3CCc4cccc(C(=O)Nc5nc6ccccc6s5)c4C3)nc2C(=O)O)cnn1CC12CC3CC(C1)CC(OCC1CCOCC1)(C3)C2 [Example 53] on UniProt:Q07817?
**A:** > 10.00

Here's the next entry for you.
**Q:** Hi! What's the reported pKi for Cc1c(-c2ccc(N3CCc4cccc(C(=O)Nc5nc6ccccc6s5)c4C3)nc2C(=O)O)cc(C#N)n1CC12CC3CC(CC(C3)O1)C2 [Example 71] on UniProt:Q07817?
**A:** > 10.00
